Molecular target: human plasma kallikrein (Homo sapiens (Human), UniProt P03952)
Sequence (P03952 391-638): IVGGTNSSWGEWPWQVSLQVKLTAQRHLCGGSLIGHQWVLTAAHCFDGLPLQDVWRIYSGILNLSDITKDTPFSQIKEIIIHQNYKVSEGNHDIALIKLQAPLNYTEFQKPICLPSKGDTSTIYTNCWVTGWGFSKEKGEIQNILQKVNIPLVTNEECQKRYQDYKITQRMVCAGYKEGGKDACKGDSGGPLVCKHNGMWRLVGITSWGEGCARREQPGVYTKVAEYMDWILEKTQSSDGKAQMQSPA
Sequence (P03952 20-390 partner): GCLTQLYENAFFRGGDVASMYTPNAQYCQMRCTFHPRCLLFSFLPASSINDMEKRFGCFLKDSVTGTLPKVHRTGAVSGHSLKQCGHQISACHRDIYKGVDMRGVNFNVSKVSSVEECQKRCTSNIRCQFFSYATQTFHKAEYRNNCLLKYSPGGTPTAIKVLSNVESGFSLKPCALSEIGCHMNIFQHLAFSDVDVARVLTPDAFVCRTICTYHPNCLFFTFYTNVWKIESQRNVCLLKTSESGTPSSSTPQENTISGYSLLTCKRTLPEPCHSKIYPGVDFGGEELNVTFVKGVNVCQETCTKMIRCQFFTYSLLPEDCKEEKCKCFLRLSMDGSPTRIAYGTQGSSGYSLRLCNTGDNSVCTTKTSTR
Test: Kallikrein inhibition assay (FLINT) utilizing a quenched AMC peptide substrate
Assay type: biochemical
Settings: 30 min preincubation, kinetic reads over 30 min, Z-Gly-Pro-Arg-AMC substrate 50 μM; read-out: Kallikrein Kin Inh IC50
Entries and their measured IC50 follow.
reported.metric: IC50 (nM)

molecule: COC(=O)Nc1ccc(-c2cnc([C@@H]3CC[C@H]4CC(c5c(F)ccc(Cl)c5OC(F)F)=CC(=O)N43)[nH]2)cc1 (relative stereo) [Example 319]
tgt: human plasma kallikrein (Homo sapiens (Human), UniProt P03952)
unit.annotation: nM
measured: 455
//
molecule: Nc1ccnn1-c1nccc(-c2c[nH]c([C@@H]3CC[C@@H]4CC(c5c(-n6cnnn6)ccc(Cl)c5F)=CC(=O)N43)n2)c1F [Example 68]
tgt: human plasma kallikrein (Homo sapiens (Human), UniProt P03952)
unit.annotation: nM
measured: 58
//
molecule: CC(C)(O)CCc1nccc(-c2cnc([C@@H]3CC[C@H]4CC(c5c(-n6cnnn6)ccc(Cl)c5F)=CC(=O)N43)[nH]2)c1F (single isomer, unassigned) [Example 159]
tgt: human plasma kallikrein (Homo sapiens (Human), UniProt P03952)
unit.annotation: nM
measured: 22.2

---

Biological target: Factor XIa (Homo sapiens (Human))
Assay: Factor XIa inhibition assay (FLINT) utilizing a fluorophore-quencher pair peptide substrate
Type: biochemical
Conditions: 30 min preincubation, kinetic reads over 30 min, 5Fam-KLTRAETV-K5Tamra substrate 15 μM; read-out: FXIa Kin Inh IC50
Entries and their measured IC50 follow.

molecule: NC(=O)c1ccc(-c2cnc([C@H]3CC[C@@H]4CC(c5c(-n6cnnn6)ccc(Cl)c5F)=CC(=O)N43)[nH]2)cn1 (single isomer, unassigned)
tgt: Factor XIa (Homo sapiens (Human))
sign: =
IC50 / nM: 10.2

molecule: Cn1cc(-c2ccccc2NC(=O)C2CC2)nc1[C@@H]1CC[C@@H]2CC(c3c(-n4cnnn4)ccc(Cl)c3F)=CC(=O)N21 (single isomer, unassigned)
tgt: Factor XIa (Homo sapiens (Human))
sign: >
IC50 / nM: 100

molecule: O=C1C=C(c2c(-n3cnnn3)ccc(Cl)c2F)CC2CC[C@@H](c3ncc(-c4ccc5[nH]c(=O)ccc5c4)[nH]3)N12 (stereo partly drawn)
tgt: Factor XIa (Homo sapiens (Human))
sign: =
IC50 / nM: 0.3

molecule: NC(=O)c1ncc(-c2c[nH]c([C@@H]3CC[C@@H]4CC(c5c(-n6cc(C(F)(F)F)nn6)ccc(Cl)c5F)=CC(=O)N43)n2)s1 (single isomer, unassigned)
tgt: Factor XIa (Homo sapiens (Human))
sign: =
IC50 / nM: 9.3

molecule: CC(C)(CO)Nc1nccc(-c2cnc([C@@H]3CC[C@@H]4CC(c5c(-n6cnnn6)ccc(Cl)c5F)=CC(=O)N43)[nH]2)c1F
tgt: Factor XIa (Homo sapiens (Human))
sign: =
IC50 / nM: 5.8

molecule: O=C1C=C(c2c(-n3cnnn3)ccc(Cl)c2F)C[C@H]2CC[C@@H](c3nc(-c4ccnc5[nH]ncc45)c[nH]3)N12
tgt: Factor XIa (Homo sapiens (Human))
sign: =
IC50 / nM: 2.1

molecule: Nc1ccc(-c2[nH]c([C@@H]3CC[C@@H]4CC(c5cc(Cl)ccc5-n5cnnn5)=CC(=O)N43)nc2F)c(F)n1
tgt: Factor XIa (Homo sapiens (Human))
sign: =
IC50 / nM: 0.3

molecule: O=C1C=C(c2c(-n3cnnn3)ccc(Cl)c2F)C[C@H]2CC[C@@H](c3ncc(-c4ccnc5c4CCO5)[nH]3)N12
tgt: Factor XIa (Homo sapiens (Human))
sign: =
IC50 / nM: 1.3

molecule: O=C1Nc2ccc(-c3cnc([C@@H]4CCC5CC(c6c(-n7cnnn7)ccc(Cl)c6F)=CC(=O)N54)[nH]3)cc2CO1 (stereo partly drawn)
tgt: Factor XIa (Homo sapiens (Human))
sign: =
IC50 / nM: 0.3

molecule: COC(=O)Nc1ccc(-c2cnc([C@@H]3CCC4CC(c5c(OCC(F)(F)F)ccc(Cl)c5F)=CC(=O)N43)[nH]2)cc1 (stereo partly drawn)
tgt: Factor XIa (Homo sapiens (Human))
sign: =
IC50 / nM: 14.3

molecule: CC(C)(O)CCc1nccc(-c2cnc([C@@H]3CC[C@@H]4CC(c5c(-n6cnnn6)ccc(Cl)c5F)=CC(=O)N43)[nH]2)c1F (single isomer, unassigned)
tgt: Factor XIa (Homo sapiens (Human))
sign: =
IC50 / nM: 1

molecule: Nc1cc(-c2[nH]c([C@@H]3CC[C@@H]4CC(c5c(-n6cnnn6)ccc(Cl)c5F)=CC(=O)N43)nc2F)c(Cl)cn1
tgt: Factor XIa (Homo sapiens (Human))
sign: =
IC50 / nM: 12.6

---

Target: Factor XIa (Homo sapiens (Human), UniProt P03951)
Sequence (P03951 388-625): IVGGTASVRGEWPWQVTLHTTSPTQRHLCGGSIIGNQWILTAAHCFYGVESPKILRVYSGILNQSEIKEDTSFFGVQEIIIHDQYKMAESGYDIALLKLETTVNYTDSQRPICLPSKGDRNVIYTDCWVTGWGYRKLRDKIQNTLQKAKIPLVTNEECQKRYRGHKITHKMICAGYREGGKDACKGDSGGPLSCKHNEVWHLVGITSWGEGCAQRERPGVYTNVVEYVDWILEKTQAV
Sequence (P03951 19-387 partner): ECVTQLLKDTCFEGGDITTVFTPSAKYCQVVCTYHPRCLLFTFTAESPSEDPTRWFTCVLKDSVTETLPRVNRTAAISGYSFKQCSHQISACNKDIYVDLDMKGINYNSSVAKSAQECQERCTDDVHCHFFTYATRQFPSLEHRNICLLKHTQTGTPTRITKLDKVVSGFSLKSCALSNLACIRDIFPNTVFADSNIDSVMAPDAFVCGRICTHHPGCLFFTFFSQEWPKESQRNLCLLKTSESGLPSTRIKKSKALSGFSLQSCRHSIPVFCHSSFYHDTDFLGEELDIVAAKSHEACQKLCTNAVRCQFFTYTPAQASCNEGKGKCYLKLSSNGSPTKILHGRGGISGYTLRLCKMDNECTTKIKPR
Test: Factor XIa inhibition assay (FLINT) utilizing a fluorophore-quencher pair peptide substrate
Assay type: biochemical
Conditions: 30 min preincubation, kinetic reads over 30 min, 5Fam-KLTRAETV-K5Tamra substrate 15 μM; read-out: FXIa Kin Inh IC50
reported.metric: IC50

compound: O=C1C=C(c2c(-n3cnnn3)ccc(Cl)c2F)C[C@H]2CC[C@H](c3nc(F)c(-c4ccnc(C5(O)CC5)c4F)[nH]3)N12 (single isomer, unassigned) [Example 109]
reported.metric: IC50
measured: 4.8 nM
//
compound: CC(C)(O)CNc1nccc(-c2[nH]c([C@@H]3CC[C@@H]4CC(c5cc(Cl)ccc5-n5cnnn5)=CC(=O)N43)nc2F)c1F [Example 84]
reported.metric: IC50
measured: 0.3 nM
//
compound: O=C1CCCN1c1nccc(-c2cnc([C@@H]3CC[C@H]4CC(c5c(-n6cnnn6)ccc(Cl)c5F)=CC(=O)N43)[nH]2)c1F [Example 105]
reported.metric: IC50
measured: 62.9 nM
//
compound: O=C1C=C(c2c(-n3cc(C(F)(F)F)nn3)ccc(Cl)c2F)C[C@@H]2CC[C@H](c3ncc(-c4c[nH]c5ncccc45)[nH]3)N12 (single isomer, unassigned) [Example 140]
reported.metric: IC50
measured: 2.9 nM
//
compound: NC(=O)c1scc(-c2c[nH]c([C@@H]3CC[C@@H]4CC(c5c(-n6cnnn6)ccc(Cl)c5F)=CC(=O)N43)n2)c1F [Example 214]
reported.metric: IC50
measured: 1.4 nM
//
compound: NC(=O)c1ccc(-c2nc([C@@H]3CC[C@H]4CC(c5c(-n6cc(C(F)(F)F)nn6)ccc(Cl)c5F)=CC(=O)N43)[nH]c2Cl)s1 [Example 202]
reported.metric: IC50
measured: 0.6 nM
//
compound: O=C1C=C(c2c(-n3cnnn3)ccc(Cl)c2F)C[C@H]2CC[C@@H](c3ncc(-c4cnc5[nH]ccc5c4)[nH]3)N12 [Example 24]
reported.metric: IC50
measured: 74.4 nM
//
compound: CNc1n[nH]c2cc(-c3cnc([C@@H]4CC[C@H]5CC(c6c(-n7cnnn7)ccc(Cl)c6F)=CC(=O)N54)[nH]3)ccc12 [Example 265]
reported.metric: IC50
measured: 0.4 nM
//
compound: O=C1C=C(c2c(-n3cnnn3)ccc(Cl)c2F)C[C@H]2CC[C@@H](c3ncc(-c4ccnc(C5COC5)c4F)[nH]3)N12 [Example 130]
reported.metric: IC50
measured: 3.5 nM
//
compound: O=C1C=C(c2c(-n3cnnn3)ccc(Cl)c2F)C[C@H]2CC[C@@H](c3ncc(-c4c[nH]nc4F)[nH]3)N12 [Example 217]
reported.metric: IC50
measured: 4.5 nM
//
compound: NC(=O)c1cc(-c2cnc([C@@H]3CC[C@H]4CC(c5c(-n6cnnn6)ccc(Cl)c5F)=CC(=O)N43)[nH]2)ccc1F [Example 232]
reported.metric: IC50
measured: > 100 nM
//
compound: COC(=O)Nc1ccc(-c2cnc([C@@H]3CC[C@@H]4CC(c5c(-n6cnnn6)ccc(Cl)c5F)=CC(=O)N43)[nH]2)cc1 [Example 341]
reported.metric: IC50
measured: 0.2 nM

---

Entries and their measured log10(IC50) follow.
Biological target: human plasma kallikrein (Homo sapiens (Human))
Assay: Kallikrein inhibition assay (FLINT) utilizing a quenched AMC peptide substrate
Type: biochemical
Settings: 30 min preincubation, kinetic reads over 30 min, Z-Gly-Pro-Arg-AMC substrate 50 μM; read-out: Kallikrein Kin Inh IC50
reported.metric: log10(IC50) (log10 of the value in nM)

compound: NC(=O)c1ccc(-c2c[nH]c([C@@H]3CC[C@H]4CC(c5c(-n6cc(C(F)(F)F)nn6)ccc(Cl)c5F)=CC(=O)N43)n2)s1 (single isomer, unassigned) [Example 221]
log10(IC50): 0.89

compound: O=C(O)c1nccc(-c2[nH]c([C@@H]3CC[C@@H]4CC(c5c(-n6cc(C(F)(F)F)nn6)ccc(Cl)c5F)=CC(=O)N43)nc2F)c1F [Example 34]
log10(IC50): 1.52

compound: COC(=O)Nc1nccc(-c2cnc([C@@H]3CC[C@@H]4CC(c5c(-n6cnnn6)ccc(Cl)c5F)=CC(=O)N43)[nH]2)c1F [Example 44]
log10(IC50): 1.06

compound: COC(=O)Nc1ccc(-c2cnc([C@@H]3CC[C@@H]4CC(c5c(-n6cnnn6)ccc(Cl)c5F)=CC(=O)N43)[nH]2)cc1 [Example 341]
log10(IC50): 0.11

compound: O=C1C=C(c2c(-n3cnnn3)ccc(Cl)c2F)CC2CC[C@@H](c3nc(-c4ccnc(OC(F)F)c4)c[nH]3)N12 (stereo partly drawn) [Example 10]
log10(IC50): 1.43

compound: O=C1CCc2cc(-c3cnc([C@@H]4CC[C@@H]5CC(c6c(-n7cnnn7)ccc(Cl)c6F)=CC(=O)N54)[nH]3)ccc2N1 (relative stereo) [Example 281]
log10(IC50): -0.10
